For each of the compounds below, state its MIC50.
# System: Bacteroides fragilis
# Assay explanation: Antibacterial activity against Bacteroides fragilis by CLSI M11-A6 agar dilution method
# Format: functional
Give bare numbers, in µg/mL.

// known answers, use as guide
GET /values?readout=MIC50&system=Bacteroides fragilis&item= CN[C@H](CC(C)C)C(=O)N[C@H]1C(=O)N[C@@H](CC(N)=O)C(=O)N[C@H]2C(=O)N[C@H]3C(=O)N[C@H](C(=O)N[C@H](C(=O)O)c4cc(O)cc(O)c4-c4cc3ccc4O)[C@H](O)c3ccc(c(Cl)c3)Oc3cc2cc(c3O[C@@H]2O[C@H](CO)[C@@H](O)[C@H](O)[C@H]2O[C@H]2C[C@](C)(N)[C@H](O)[C@H](C)O2)Oc2ccc(cc2Cl)[C@H]1O
64

Entry CC(=O)NC[C@H]1CN(c2ccc(N3CCOCC3)c(F)c2)C(=O)O1 , system Bacteroides fragilis: what MIC50 was measured?
4

Write down the reported MIC50 of Cc1ncc([N+](=O)[O-])n1CCO , test system: Bacteroides fragilis.
1

Here's the next entry for you.
Please provide the recorded MIC50 for CCC[C@@H]1C[C@@H](C(=O)N[C@@H]([C@H]2O[C@H](SC)[C@H](O)[C@@H](O)[C@H]2O)[C@H](C)Cl)N(C)C1 , tested on Bacteroides fragilis.
0.5

----------
# System: Bifidobacterium pseudolongum
# Assay explanation: Antibacterial activity against Bifidobacterium pseudolongum by CLSI M11-A6 agar dilution method
# Type: functional
Hi there, I'd appreciate the recorded MIC90 for every entry that follows.
Give bare numbers, in µg/mL.

Need MIC90 of CN[C@H](CC(C)C)C(=O)N[C@H]1C(=O)N[C@@H](CC(N)=O)C(=O)N[C@H]2C(=O)N[C@H]3C(=O)N[C@H](C(=O)N[C@H](C(=O)O)c4cc(O)cc(O)c4-c4cc3ccc4O)[C@H](O)c3ccc(c(Cl)c3)Oc3cc2cc(c3O[C@@H]2O[C@H](CO)[C@@H](O)[C@H](O)[C@H]2O[C@H]2C[C@](C)(N)[C@H](O)[C@H](C)O2)Oc2ccc(cc2Cl)[C@H]1O , thanks.
4

Reported MIC90 for CCCCCCCCCCNCCN[C@@]1(C)C[C@H](O[C@H]2[C@H](Oc3c4cc5cc3Oc3ccc(cc3Cl)[C@@H](O)[C@@H](NC(=O)[C@@H](CC(C)C)NC)C(=O)N[C@@H](CC(N)=O)C(=O)N[C@H]5C(=O)N[C@H]3C(=O)N[C@H](C(=O)N[C@H](C(=O)O)c5cc(O)c(CNCP(=O)(O)O)c(O)c5-c5cc3ccc5O)[C@H](O)c3ccc(c(Cl)c3)O4)O[C@H](CO)[C@@H](O)[C@@H]2O)O[C@@H](C)[C@H]1O : what is it?
0.5

Name the reported MIC90 value associated with the compound CCC[C@@H]1C[C@@H](C(=O)N[C@@H]([C@H]2O[C@H](SC)[C@H](O)[C@@H](O)[C@H]2O)[C@H](C)Cl)N(C)C1
1

Query compound follows.
Consider the compound shown here: Cc1ncc([N+](=O)[O-])n1CCO What is its recorded MIC90?
128

----------
Please provide measured MIC90 for the entries that follow.
# System: Prevotella buccae
# Assay explanation: Antibacterial activity against Prevotella buccae by CLSI M11-A6 agar dilution method
# Format: functional
# Condition details: Segatella buccae
One number for each entry, in µg/mL.

Look over these answered cases.
Request the reported MIC90 associated with CCCCCCCCCCNCCN[C@@]1(C)C[C@H](O[C@H]2[C@H](Oc3c4cc5cc3Oc3ccc(cc3Cl)[C@@H](O)[C@@H](NC(=O)[C@@H](CC(C)C)NC)C(=O)N[C@@H](CC(N)=O)C(=O)N[C@H]5C(=O)N[C@H]3C(=O)N[C@H](C(=O)N[C@H](C(=O)O)c5cc(O)c(CNCP(=O)(O)O)c(O)c5-c5cc3ccc5O)[C@H](O)c3ccc(c(Cl)c3)O4)O[C@H](CO)[C@@H](O)[C@@H]2O)O[C@@H](C)[C@H]1O [TELAVANCIN]
64

Return reported MIC90; argument: CC(=O)NC[C@H]1CN(c2ccc(N3CCOCC3)c(F)c2)C(=O)O1 [LINEZOLID]
2

Moving on to the next compound.
// MIC90 lookup, key: Cc1ncc([N+](=O)[O-])n1CCO [METRONIDAZOLE]
1

----------
# System: Bifidobacterium dentium
# Assay explanation: Antibacterial activity against Bifidobacterium dentium by CLSI M11-A6 agar dilution method
# Format: functional
What MIC90 was measured for each of the following?

Completed entries (count: 4):
Report MIC90 for CCC[C@@H]1C[C@@H](C(=O)N[C@@H]([C@H]2O[C@H](SC)[C@H](O)[C@@H](O)[C@H]2O)[C@H](C)Cl)N(C)C1 tested on Bifidobacterium dentium.
1 µg/mL

// fetch Bifidobacterium dentium MIC90 for CC(=O)NC[C@H]1CN(c2ccc(N3CCOCC3)c(F)c2)C(=O)O1
8 µg/mL

Param readout = MIC90; param system = Bifidobacterium dentium; param query = CCCCCCCCCCNCCN[C@@]1(C)C[C@H](O[C@H]2[C@H](Oc3c4cc5cc3Oc3ccc(cc3Cl)[C@@H](O)[C@@H](NC(=O)[C@@H](CC(C)C)NC)C(=O)N[C@@H](CC(N)=O)C(=O)N[C@H]5C(=O)N[C@H]3C(=O)N[C@H](C(=O)N[C@H](C(=O)O)c5cc(O)c(CNCP(=O)(O)O)c(O)c5-c5cc3ccc5O)[C@H](O)c3ccc(c(Cl)c3)O4)O[C@H](CO)[C@@H](O)[C@@H]2O)O[C@@H](C)[C@H]1O ; response: value
0.5 µg/mL

Please state recorded MIC90 (tested on Bifidobacterium dentium) of CN[C@H](CC(C)C)C(=O)N[C@H]1C(=O)N[C@@H](CC(N)=O)C(=O)N[C@H]2C(=O)N[C@H]3C(=O)N[C@H](C(=O)N[C@H](C(=O)O)c4cc(O)cc(O)c4-c4cc3ccc4O)[C@H](O)c3ccc(c(Cl)c3)Oc3cc2cc(c3O[C@@H]2O[C@H](CO)[C@@H](O)[C@H](O)[C@H]2O[C@H]2C[C@](C)(N)[C@H](O)[C@H](C)O2)Oc2ccc(cc2Cl)[C@H]1O
4 µg/mL

Kindly consider the entry below.
# value lookup — system Bifidobacterium dentium, readout MIC90, item Cc1ncc([N+](=O)[O-])n1CCO
128 µg/mL

----------
Answer each item with its documented MIC90.
# Test system: Prevotella bivia
# Assay explanation: Antibacterial activity against Prevotella bivia by CLSI M11-A6 agar dilution method
# Format: functional

Fill in MIC90 for each of the 5 compounds listed.
1. CC(=O)NC[C@H]1CN(c2ccc(N3CCOCC3)c(F)c2)C(=O)O1
2. Cc1ncc([N+](=O)[O-])n1CCO
3. CN[C@H](CC(C)C)C(=O)N[C@H]1C(=O)N[C@@H](CC(N)=O)C(=O)N[C@H]2C(=O)N[C@H]3C(=O)N[C@H](C(=O)N[C@H](C(=O)O)c4cc(O)cc(O)c4-c4cc3ccc4O)[C@H](O)c3ccc(c(Cl)c3)Oc3cc2cc(c3O[C@@H]2O[C@H](CO)[C@@H](O)[C@H](O)[C@H]2O[C@H]2C[C@](C)(N)[C@H](O)[C@H](C)O2)Oc2ccc(cc2Cl)[C@H]1O
4. CCC[C@@H]1C[C@@H](C(=O)N[C@@H]([C@H]2O[C@H](SC)[C@H](O)[C@@H](O)[C@H]2O)[C@H](C)Cl)N(C)C1
5. CCCCCCCCCCNCCN[C@@]1(C)C[C@H](O[C@H]2[C@H](Oc3c4cc5cc3Oc3ccc(cc3Cl)[C@@H](O)[C@@H](NC(=O)[C@@H](CC(C)C)NC)C(=O)N[C@@H](CC(N)=O)C(=O)N[C@H]5C(=O)N[C@H]3C(=O)N[C@H](C(=O)N[C@H](C(=O)O)c5cc(O)c(CNCP(=O)(O)O)c(O)c5-c5cc3ccc5O)[C@H](O)c3ccc(c(Cl)c3)O4)O[C@H](CO)[C@@H](O)[C@@H]2O)O[C@@H](C)[C@H]1O

1. 2 µg/mL
2. 1 µg/mL
3. > 128 µg/mL
4. ≤ 0.12 µg/mL
5. 64 µg/mL

// returns reported MIC90 for input CCCCCCCCCC(=O)N[C@@H](Cc1c[nH]c2ccccc12)C(=O)N[C@H](CC(N)=O)C(=O)N[C@@H](CC(=O)O)C(=O)N[C@@H]1C(=O)NCC(=O)N[C@@H](CCCN)C(=O)N[C@@H](CC(=O)O)C(=O)N[C@H](C)C(=O)N[C@@H](CC(=O)O)C(=O)NCC(=O)N[C@H](CO)C(=O)N[C@@H]([C@H](C)CC(=O)O)C(=O)N[C@@H](CC(=O)c2ccccc2N)C(=O)O[C@@H]1C
> 128 µg/mL

----------
# Tested on: Prevotella oris
# Assay explanation: Antibacterial activity against Prevotella oris by CLSI M11-A6 agar dilution method
# Type: functional
# Condition details: Segatella oris
Give measured MIC50 for each item. Keep answers brief.
Numbers only, in µg/mL.

What value of MIC50 has been reported for the following molecule? CCCCCCCCCCNCCN[C@@]1(C)C[C@H](O[C@H]2[C@H](Oc3c4cc5cc3Oc3ccc(cc3Cl)[C@@H](O)[C@@H](NC(=O)[C@@H](CC(C)C)NC)C(=O)N[C@@H](CC(N)=O)C(=O)N[C@H]5C(=O)N[C@H]3C(=O)N[C@H](C(=O)N[C@H](C(=O)O)c5cc(O)c(CNCP(=O)(O)O)c(O)c5-c5cc3ccc5O)[C@H](O)c3ccc(c(Cl)c3)O4)O[C@H](CO)[C@@H](O)[C@@H]2O)O[C@@H](C)[C@H]1O
8

Now for a further molecule.
Record request: MIC50 value, item CN[C@H](CC(C)C)C(=O)N[C@H]1C(=O)N[C@@H](CC(N)=O)C(=O)N[C@H]2C(=O)N[C@H]3C(=O)N[C@H](C(=O)N[C@H](C(=O)O)c4cc(O)cc(O)c4-c4cc3ccc4O)[C@H](O)c3ccc(c(Cl)c3)Oc3cc2cc(c3O[C@@H]2O[C@H](CO)[C@@H](O)[C@H](O)[C@H]2O[C@H]2C[C@](C)(N)[C@H](O)[C@H](C)O2)Oc2ccc(cc2Cl)[C@H]1O
32

Data origin: ChEMBL document CHEMBL1671662
